Target: human GPR39 receptor (Homo sapiens, UniProt O43194)
Construct: PC3 Cells, Expressing the Endogenous Human GPR39 Receptor; endogenous in cells
Sequence (O43194 1-453): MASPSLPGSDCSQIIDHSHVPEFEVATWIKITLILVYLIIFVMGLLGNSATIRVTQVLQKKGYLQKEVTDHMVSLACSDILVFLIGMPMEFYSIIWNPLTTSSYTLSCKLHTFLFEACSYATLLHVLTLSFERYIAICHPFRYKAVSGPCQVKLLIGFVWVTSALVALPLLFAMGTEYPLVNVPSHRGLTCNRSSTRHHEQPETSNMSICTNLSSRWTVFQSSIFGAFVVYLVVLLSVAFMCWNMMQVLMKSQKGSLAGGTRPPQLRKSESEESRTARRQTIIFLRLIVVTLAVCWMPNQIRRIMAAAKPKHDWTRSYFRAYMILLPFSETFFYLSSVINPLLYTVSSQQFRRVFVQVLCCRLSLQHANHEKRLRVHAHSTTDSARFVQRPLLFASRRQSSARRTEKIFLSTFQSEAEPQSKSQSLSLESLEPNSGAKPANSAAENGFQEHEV
Experiment: Measurement of intracellular calcium response in PC3 cells (FLIPR), antagonism of the C3 agonist response
Settings: functional pKi (modified Cheng-Prusoff), inhibition of the C3 (TC-G 1008) response at EC90, 30 μM ZnCl2, read-out: fpKi activity
PROPERTY MEASURED: Ki

{"MOLECULE": "O=C(Nc1ccc(C(=O)N2CCN(Cc3cccc(F)c3)CC2)c(N2CCCCCC2)c1)C1CC1", "RESULT": "63.1 to 251 nM"}
{"MOLECULE": "O=C(Nc1ccc(C(=O)N2CCS(=O)(=O)CC2)c(-n2ccc(C3CC3)n2)c1)C1CC1", "RESULT": "≤ 50.1 nM"}
{"MOLECULE": "COc1ccc(CN2CCN(C(=O)c3ccc(NC(=O)C4CC4)cc3N3CCCCCC3)CC2)cc1", "RESULT": "316 to 1000 nM"}
{"MOLECULE": "CCCN1CCN(C(=O)c2ccc(Nc3nnc(C4CC4)[nH]3)cc2N2CCCCCC2)CC1", "RESULT": "1260 to 6310 nM"}
{"MOLECULE": "O=C(Nc1ccc(C(=O)N2CCS(=O)(=O)CC2)c(N2CCC3(CCC3)C2)c1)C1CC1", "RESULT": "≤ 50.1 nM"}
{"MOLECULE": "CC(C)C1CCN(c2nc(NC(=O)C3CC3)ccc2C(=O)N2CCS(=O)(=O)CC2)C1 (racemic)", "RESULT": "≤ 50.1 nM"}
{"MOLECULE": "CCCN1CCN(C(=O)c2ccc(NC(=O)C3CC3)cc2N2CCCCC2)CC1", "RESULT": "316 to 1000 nM"}
{"MOLECULE": "O=C(Nc1ccc(C(=O)N2CCC(C(F)(F)F)CC2)c(N2CCCCCC2)c1)C1CC1", "RESULT": "63.1 to 251 nM"}
{"MOLECULE": "O=C(Nc1ccc(C(=O)N2CCS(=O)(=O)CC2)c(N2CCCC(C(F)(F)F)C2)c1)C1CC1 (single isomer, unassigned) [Example 185a]", "RESULT": "63.1 to 251 nM"}
{"MOLECULE": "CN1CCN(C(=O)c2ccc(NC(=O)C3CC3)cc2N2CCCC2)C(c2ccccc2F)C1 (single isomer, unassigned) [Example 84b]", "RESULT": "1260 to 6310 nM"}
{"MOLECULE": "O=C(Nc1ccc(C(=O)N2CCOC(C(F)(F)F)C2)c(N2CCCC2)c1)C1CC1 (stereo not shown)", "RESULT": "1260 to 6310 nM"}
{"MOLECULE": "O=C(Nc1ccc(C(=O)N2CCN(c3ccncc3)CC2)c(N2CCCCCC2)c1)C1CC1", "RESULT": "1260 to 6310 nM"}
{"MOLECULE": "CC1CCN(c2cc(NC(=O)C3CC3)ccc2C(=O)N2CCN(C)CC2c2ccccc2)C1 (single isomer, unassigned) [Example 64c]", "RESULT": "≤ 50.1 nM"}

Values from patent US20230174484A1
